- testedTarget: HDAC6 (Homo sapiens, UniProt Q9UBN7)
- Construct: made in house; host or cells: E. coli BL21 (DE3), pET-28a plasmid
- Sequence (Q9UBN7 1-1215): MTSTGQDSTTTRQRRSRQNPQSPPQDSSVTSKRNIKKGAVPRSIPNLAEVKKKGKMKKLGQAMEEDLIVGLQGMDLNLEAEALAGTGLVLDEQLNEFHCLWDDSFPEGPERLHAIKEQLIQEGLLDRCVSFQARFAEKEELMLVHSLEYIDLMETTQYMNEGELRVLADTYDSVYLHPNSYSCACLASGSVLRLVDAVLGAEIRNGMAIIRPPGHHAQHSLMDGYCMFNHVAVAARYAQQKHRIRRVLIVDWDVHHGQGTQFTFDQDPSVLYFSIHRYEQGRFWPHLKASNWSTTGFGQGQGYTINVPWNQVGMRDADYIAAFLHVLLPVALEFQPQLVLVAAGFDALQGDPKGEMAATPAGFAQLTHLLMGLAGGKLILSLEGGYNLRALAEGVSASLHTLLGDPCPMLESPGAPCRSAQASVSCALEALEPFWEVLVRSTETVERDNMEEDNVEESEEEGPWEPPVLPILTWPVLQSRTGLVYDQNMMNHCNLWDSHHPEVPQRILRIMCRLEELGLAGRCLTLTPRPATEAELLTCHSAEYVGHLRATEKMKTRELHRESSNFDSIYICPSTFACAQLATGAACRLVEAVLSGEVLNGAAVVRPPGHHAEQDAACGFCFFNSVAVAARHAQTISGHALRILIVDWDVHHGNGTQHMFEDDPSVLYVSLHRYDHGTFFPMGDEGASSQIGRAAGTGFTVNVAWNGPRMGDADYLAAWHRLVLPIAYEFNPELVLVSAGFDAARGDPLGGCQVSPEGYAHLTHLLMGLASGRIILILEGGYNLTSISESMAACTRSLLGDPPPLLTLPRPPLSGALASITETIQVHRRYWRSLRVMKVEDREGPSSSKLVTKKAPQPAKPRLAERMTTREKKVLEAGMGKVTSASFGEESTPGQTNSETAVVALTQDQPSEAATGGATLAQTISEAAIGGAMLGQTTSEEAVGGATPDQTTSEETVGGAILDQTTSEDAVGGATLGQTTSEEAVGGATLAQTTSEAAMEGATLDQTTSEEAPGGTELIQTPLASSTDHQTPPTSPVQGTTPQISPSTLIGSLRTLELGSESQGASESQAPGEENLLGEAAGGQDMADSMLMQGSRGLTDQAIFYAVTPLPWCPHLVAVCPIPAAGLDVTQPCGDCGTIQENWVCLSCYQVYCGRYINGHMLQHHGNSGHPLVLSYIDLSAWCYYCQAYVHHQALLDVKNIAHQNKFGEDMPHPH
- assayText: HDAC6 enzyme inhibition, fluorescence assay
- Assay type: biochemical
- conditionLabel: Hill slope of fitted dose-effect curve (GraphPad Prism)
Exercise: state measured Hill Slope for each of the compounds provided.

Record summary for O=C(OCc1ccncc1)c1ccnc(CCOC(=O)C2CSC(O)CN2C(=O)C(=O)c2ccccn2)c1 (stereo not drawn) : reported Hill Slope = 1

// Hill Slope lookup, compound = CC(COC(=O)c1cccc(COC(=O)C2COC(O)CN2C(=O)C(=O)C2=Cc3ccccc3C2)c1)c1ccccc1 (stereo not drawn) , result: 1

The recorded Hill Slope for O=C(C(=O)N1CC(O)CCC1C(=O)OCCC1CCCCC1C(=O)OCc1cccc(Br)c1)c1cc2ccccc2[nH]1 (stereo not drawn) is 1
